Target: UniProt O76074
pKi: −log10 of the molar value.
Parameter measured: pKi

C[C@@H](O)Cn1cnc2c1c(=O)n(C)c(=O)n2C ... 3.22
